Source: ChEMBL document CHEMBL4359886

Assay: Cytotoxicity against human MRC5 cells assessed as reduction in cell viability incubated for 72 hrs by MTT assay
Assay type: cell-based
ENDPOINT_LABEL: log10 of CC50 at 72 h (log10 of the value in µM)
Scale: decimal log of CC50 at 72 h, CC50 at 72 h in µM.

These solved cases illustrate the format of a correct answer.
Looking up CSc1ccc(CC2(O)c3cc(Cl)c(Cl)cc3C3=NCCN32)cc1 (stereo not drawn) , I see its log10 of CC50 at 72 h listed as 0.93

Looking up OC1(Cc2ccc(Cl)cc2)c2c(Cl)ccc(Cl)c2C2=NCCN21 (stereo not drawn) , I see its log10 of CC50 at 72 h listed as 1.53

Looking up OC1(Cc2ccc(Cl)cc2)c2cc(Cl)c(Cl)cc2C2=NCCN21 (stereo not drawn) , I see its log10 of CC50 at 72 h listed as 0.95

Looking up C[C@@H]1[C@H](O)[C@@H](C)/C=C/C=C/C=C/C=C/C=C/C=C/C=C/[C@H](O[C@@H]2O[C@H](C)[C@@H](O)[C@H](N)[C@@H]2O)C[C@@H]2O[C@](O)(C[C@@H](O)C[C@@H](O)[C@H](O)CC[C@@H](O)C[C@@H](O)CC(=O)O[C@H]1C)C[C@H](O)[C@H]2C(=O)O , I see its log10 of CC50 at 72 h listed as 1.08

Could you report log10 of CC50 at 72 h for every entry in the following list?
1. CSc1ccc(CC2(O)c3c(Cl)ccc(Cl)c3C3=NCCN32)cc1 (stereo not drawn)
2. OC1(Cc2ccc(Cl)cc2)c2ccccc2C2=NCCN21 (stereo not drawn)

[1.89, 1.90]

Could you report log10 of CC50 at 72 h for every entry in the following list?
1. OC1(Cc2ccccc2Cl)c2c(Cl)ccc(Cl)c2C2=NCCN21 (stereo not drawn)
2. OC1(Cc2ccccc2)c2ccccc2C2=NCCN21 (stereo not drawn)

1.61
2.26
